Tested on: NCI-H23 lung
Assay: NCI tumour cell line growth inhibition, 48 h
Use 10 µM as the dividing line for TGI, with the line itself on the true (1) side and lower values as false (0).

Known results for compounds:
O=c1/c(=C/c2ccccc2F)sc2nc3ccccc3n12	true (1)
O=[N+]([O-])C1C2C=CC(C2)[C@H]1c1ccco1 (some centres undefined)	false (0)
O=[N+]([O-])c1ccc(-c2csc3nc(-c4ccccc4)nn23)cc1	true (1)
COc1ccc2nc(-n3c(/C=C/c4ccccc4O)nc4ccccc4c3=O)sc2c1	true (1)
CC(=O)N1C(=O)/C(=C\C(=O)c2ccc([N+](=O)[O-])cc2)c2ccccc21	true (1)

Test whether the compound "O=S(=O)(O)c1ccc2cccc(N=Nc3c(O)ccc4ccccc34)c2c1" records TGI of 10 µM or higher.
true (1)

---

Quick reference: TGI of the listed items.
Tested on: MALME-3M melanoma
Assay: NCI tumour cell line growth inhibition, 48 h

Here's what some known entries look like.
Cc1c(C(=O)C/C(=N\O)C(=O)Nc2cc(Cl)c(Cl)cc2Cl)[n+](=O)c2ccccc2n1[O-]	21.1 µM
Cc1ccc(NC(=O)C(=O)C(C#N)c2ccccc2C)cc1C (stereo not given)	> 100 µM
Cc1ccc(C(=O)c2nnc(C(=O)c3ccc(C)cc3)nn2)cc1	> 100 µM

Value lookup for TGI; key = "C[C@]12CC[C@@H]3c4ccc(OP(=O)(O)O)cc4CC[C@H]3[C@@H]1CCC2=O"
> 100 µM

Now give it for "CCN(CC)c1ccc(C(=O)c2ccccc2C(=O)O)c(O)c1" too.
> 100 µM

Same thing, different compound: "CN(C)CCNc1c2c(c(NCCN(C)C)c3[nH]ccc13)C(=O)c1ccccc1C2=O"
11.9 µM

What do you have for CCCC1(NC(=O)C(F)(F)F)CC(OC)OC2COC(c3ccccc3)OC21 (stereo not given) ?
> 100 µM

Also CC(=O)OCC1OC(SC2=N/C(=C\c3cc4c(=O)c5ccccc5sc4s3)C(=O)N2c2ccccc2)C(OC(C)=O)C(OC(C)=O)C1OC(C)=O (stereo not given) , if possible.
> 100 µM

Let us now turn to "N#C/C(=C\c1ccc(O)c(O)c1)C(N)=S"
> 100 µM

Input "C[C@H](OCc1ccccc1)C(=O)N1CCS(=O)(=O)N2CCC[C@H]2C1=O"
> 100 µM

Lookup "COc1ccc2nc(N/N=C/C(C)=N/Nc3cc(C)c4cc(OC)ccc4n3)cc(C)c2c1"
76.4 µM

Try the compound "COc1ccc(-c2nn3c(-c4cc(F)c(Cl)cc4Cl)nnc3s2)cc1"
> 100 µM

Also "CCOC(=O)N/N=C(/OCC)c1ccccc1" , if possible.
> 100 µM

What about this compound? "CC1=Nc2ccccc2S/C1=C(/C)NNC(=O)C(N)=O"
> 100 µM

And then "COc1ccc(/C=C2\NC(=S)N(CN3CCCCC3)C2=O)cc1" , what is it?
> 100 µM

Same thing, different compound: "CC(C)c1cc(-c2n[nH]c(=O)n2-c2ccc3c(ccn3C)c2)c(O)cc1O"
< 0.031 µM

Please answer likewise for O=C(C1OC1c1ccc(O)cc1)C12CC3CC(CC(C3)C1)C2 (stereo not given)
98.9 µM

Repeat for the following compound: "CCOC(=O)c1cc(NS(=O)(=O)c2ccccc2)cc(C(=O)OCC)c1"
> 100 µM

Moving on to "CN(C)CCCNC(=O)CCNC(=O)c1cc(NC(=O)c2cc(NC(=O)c3cc(NC(=O)c4nc(NC(=O)CCCNC(=O)c5cc(NC(=O)c6cc(NC(=O)c7cc(NC(=O)c8nccn8C)cn7C)cn6C)cn5C)cn4C)cn3C)cn2C)cn1C"
> 100 µM

Another: "CCOc1ccc(NC(=O)C(=O)CC(=O)C2=C(C)Nc3ccccc3S2)cc1"
> 50 µM

---

Test system: HS 578T breast
Experiment: NCI tumour cell line growth inhibition, 48 h
endpoint_name: TGI

Known TGI results, listed for orientation:
O=S(=O)(O)c1ccc2cccc(N=Nc3c(O)ccc4ccccc34)c2c1	> 100 µM
NC(=O)N=C(N(Cc1ccccc1)Cc1ccccc1)N(Cc1ccccc1)Cc1ccccc1	> 100 µM
CCc1nccc2c1nc(-c1nonc1N)n2CC	> 25 µM
NC(=O)NNc1nc2ccccc2c(=O)n1NC(=O)C(=O)Nc1ccc(Cl)cc1Cl	> 100 µM

We now examine a further compound.
What does the record list as TGI for "Nc1ncnc2ccc(Sc3ccc4ncnc(N)c4c3)cc12" ?
> 100 µM

---

Test system: SF-295 CNS
Test: NCI tumour cell line growth inhibition, 48 h
Listing: TGI of selected compounds

CC1CNc2ccccc2N=C1NN (stereo unspecified)	> 100 µM
CN(CC1(CO)CCC1)c1cc(Cl)nc(N)n1	> 100 µM

# get_value(readout= TGI, system= SF-295 CNS) for COC12OC3(C4OC41)C(C(=O)O[C@H]3CO[Si](C)(C)C(C)(C)C)C2C(=O)Oc1ccccc1 (stereo partly specified)
> 100 µM

Repeat with "O=c1cc(-c2ccccc2)[nH]c2ccccc12"
> 100 µM

Next record, please: COc1cc2c(c(OC)c1)C1c3ccccc3NC(=O)N1CC2 (stereo unspecified)
9.14 µM

Same question for CC(=O)NC(CS/N=N/c1nc[nH]c1C(N)=O)C(=O)O (stereo unspecified) please.
> 100 µM

---

Tested on: RXF 393 renal
Assay: NCI tumour cell line growth inhibition, 48 h; in the data active = GI50 below about 0.43 µM; inactive = the rest
# output must be one of active, inactive

Consider the following illustrative entries.
CC(C)c1cc(-c2n[nH]c(=O)n2-c2ccc3c(ccn3C)c2)c(O)cc1O	active
O=C(CCCCCCC(=O)Nc1ccc(N(CCCl)CCCl)cc1)NO	inactive
COc1ccc(-c2nc3sc4c(c3c(=O)[nH]2)CCCCCC4)cc1	inactive

Next:
Call for entry CC[C@@H](C(=O)O)C1CC[C@H](C)C([C@@H](C)[C@H](O)[C@H](C)C(=O)[C@H](CC)C2O[C@]3(C=C[C@@H](O)[C@]4(CC[C@@](C)(C5CC[C@](O)(CC)[C@H](C)O5)O4)O3)[C@H](C)C[C@@H]2C)O1 (some centres undefined) :
active

---

Test system: UACC-62 melanoma
Experiment: NCI tumour cell line growth inhibition, 48 h
Recorded GI50 by entry

// below: answered molecules
COc1cccc(-n2ncc3c(N/N=C/c4ccc(C(=O)NCCN(C)C)cc4)ncnc32)c1	3.72 µM
CCCC(C)c1cc(Cc2cc(Cl)cc(Cl)c2O)c(O)c(Cc2cc(Cl)cc(Cl)c2O)c1 (stereo not given)	0.629 µM
COc1ccc2sc3c(NCCCN(C)C)nc4ccccc4c3c(=O)c2c1	1.8 µM
COc1ccc(-c2nc3sc4c(c3c(=O)[nH]2)CCCCCC4)cc1	0.908 µM
N#Cc1cccc(CSc2ncnc3nc[nH]c23)c1	75.7 µM
NCCn1c(=O)[nH]c(=O)[nH]c1=S	> 100 µM
COc1ccc(/C(C#N)=C/c2ccccc2OC)cc1	7.36 µM
COc1cc2c(c(OC)c1)C1c3ccccc3NC(=O)N1CC2 (stereo not given)	3.08 µM
COc1ccc(OC)c(/C=C2\SC(=S)NC2=O)c1	17.7 µM
COc1ccc(/C=C2\CCCC3=C2N=C2SC(C)=NN2C3c2ccc(OC)c(OC)c2)cc1OC (stereo not given)	4.68 µM

Using the record for "NCCOCCOCCNc1nc(Cc2ccccc2)nc(NCCCN2CCCC2=O)n1" , report its GI50.
> 100 µM

Same lookup for "N#Cc1c(N2CCCC2)[nH]c(=O)c(C(c2c(Cl)cccc2Cl)c2c(O)c(C#N)c(N3CCCC3)[nH]c2=O)c1O" , please.
4.71 µM

Let us now turn to "COc1cccc2c1c(C(=O)C(=O)Nc1cc(C)no1)cn2Cc1ccc(F)cc1"
3.29 µM

Try this molecule too: "COc1ccc(/C(=C2/O[C@@H]([C@H]3COC(C)(C)O3)[C@H]3OC(C)(C)O[C@@H]23)c2cc(OC)c(OC)c(OC)c2)cc1O"
22.9 µM

---

Measured GI50 values are reported for all entries that follow.
System: SK-MEL-28 melanoma
Assay: NCI tumour cell line growth inhibition, 48 h

CC1SC(c2ccccc2)N(CCc2cccs2)C1=O (stereo not given)	4.96 µM
COC(=O)[C@@]1(C)CC[C@]2(C)CC[C@]3(C)C4=CC=C5C(=CC(=O)C(O)=C5C)[C@]4(C)[C@@H](O)C[C@@]3(C)[C@@H]2C1	9.43 µM
N#Cc1c(N2CCCC2)[nH]c(=O)c(C(c2c(Cl)cccc2Cl)c2c(O)c(C#N)c(N3CCCC3)[nH]c2=O)c1O	5.34 µM
COc1ccc(/C(C#N)=C/c2ccccc2OC)cc1	17.5 µM

Using the record for "Cc1ccccc1[P+](Cc1ccccc1)(c1ccccc1)c1ccccc1" , report its GI50.
2.91 µM

---

Tested on: A498 renal
Assay: NCI tumour cell line growth inhibition, 48 h
Parameter threshold = 30 µM. Response is met when TGI meets or exceeds it, else not met.

Sample answers from the record:
COc1cc(OC(C)=O)cc2c(OC(C)=O)ccc(OC(C)=O)c12	met
C/C(=N/NC(=S)Nc1ccc([N+](=O)[O-])cc1)c1cccc(/C(C)=N\NC(=S)Nc2ccc([N+](=O)[O-])cc2)n1	not met
O=C1c2cccnc2C(=O)c2nc3cc(N4CCN(C5CC5)CC4)ccc3nc21	not met
CCCNC1=C(C(=O)OCC)C(=O)CO1	met

Identify whether the reported TGI of the following compound is 30 µM or greater: COC(O)C(=O)c1c2c(cc3c1CC1(Cc4cc5c(cc4C1)CCC5)C3)CCC2 (stereo not given)
met

Field entry: "Nc1ccn(CCNCCn2cnc3nc(N)[nH]c(=O)c32)c(=O)n1"
met

// same read-out, input: CCCC(C)c1cc(Cc2cc(Cl)cc(Cl)c2O)c(O)c(Cc2cc(Cl)cc(Cl)c2O)c1 (stereo not given)
not met

And the next one, "NCCn1c(=O)[nH]c(=O)[nH]c1=S" ?
met

Repeat for the following compound: "O=C(NCCO)Nc1ccc(-c2nc(N3CCOCC3)c3cccn3n2)cc1"
not met

// query: "C1C[OH+]CC[OH+]CCNCC[OH+]CC[OH+]CCN1.N.[Cl-].[Pt+4]"
met

Values compiled from PubChem BioAssay (NCI).
